ASSAY TARGET: RELA (p65) subunit of heterodimer;p50 subunit (Homo sapiens;Homo sapiens, UniProt Q04206;P19838 1-307;7-356)
Sequence (Q04206 1-307, chain 1 of 2): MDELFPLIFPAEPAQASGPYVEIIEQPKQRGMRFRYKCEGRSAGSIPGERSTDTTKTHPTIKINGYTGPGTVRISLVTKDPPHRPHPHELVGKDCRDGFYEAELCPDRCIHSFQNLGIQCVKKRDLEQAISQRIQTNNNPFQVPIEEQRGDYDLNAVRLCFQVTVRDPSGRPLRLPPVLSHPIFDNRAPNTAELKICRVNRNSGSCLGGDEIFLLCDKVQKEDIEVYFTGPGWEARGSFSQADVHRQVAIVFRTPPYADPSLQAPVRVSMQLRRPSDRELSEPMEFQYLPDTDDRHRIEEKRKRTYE
Sequence (P19838 7-356, chain 2 of 2): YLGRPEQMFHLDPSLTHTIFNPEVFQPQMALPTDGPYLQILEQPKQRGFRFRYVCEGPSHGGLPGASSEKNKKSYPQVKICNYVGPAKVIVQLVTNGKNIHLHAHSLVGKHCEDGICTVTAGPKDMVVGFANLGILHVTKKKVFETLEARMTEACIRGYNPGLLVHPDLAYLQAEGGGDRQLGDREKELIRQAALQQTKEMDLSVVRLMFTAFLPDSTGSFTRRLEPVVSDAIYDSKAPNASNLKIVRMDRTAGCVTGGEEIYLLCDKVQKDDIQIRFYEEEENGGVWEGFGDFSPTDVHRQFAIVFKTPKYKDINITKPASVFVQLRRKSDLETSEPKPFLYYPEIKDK
TEST SUMMARY: protein binding microarray; high values mean tight binding
COND: dsDNA, one strand shown
REPORTED ENDPOINT: binding signal (z-score)
Answers are plain numbers, in z-score.

CONSTRUCT SEQUENCE	binding signal / z-score
GGAGTCACCCT	-0.224

# batch: return binding signal for each of the 5 sequences below
1. GGATATGCCCT
2. GAAGTGTCCCT
3. AAGAAAGCCCT
4. AAATGAGTCCT
5. CGGAACACCCT

Solution:
1. -0.276
2. 0.67
3. -0.68
4. -0.991
5. -0.453

State the recorded binding signal for every item in the following list.
1. AGATATCTCCT
2. CAGTGGCTCCC
3. GAAAAAACCCC
4. CAGGATATCCC

Solution:
[-0.927, -0.743, 1.93, -0.14]

Fill in binding signal for each of the 3 sequences listed.
1. CGAAATCCCCC
2. CAATGTCTCCC
3. GAGGGCATCCC

Solution:
2.33
-0.405
-0.318

====

Task for the reader: assign each of the following sequences its reported binding signal.
ASSAY TARGET: RELB subunit;p52 subunit (Homo sapiens;Homo sapiens, UniProt Q01201;Q00653 120-401;4-332)
Sequence 1: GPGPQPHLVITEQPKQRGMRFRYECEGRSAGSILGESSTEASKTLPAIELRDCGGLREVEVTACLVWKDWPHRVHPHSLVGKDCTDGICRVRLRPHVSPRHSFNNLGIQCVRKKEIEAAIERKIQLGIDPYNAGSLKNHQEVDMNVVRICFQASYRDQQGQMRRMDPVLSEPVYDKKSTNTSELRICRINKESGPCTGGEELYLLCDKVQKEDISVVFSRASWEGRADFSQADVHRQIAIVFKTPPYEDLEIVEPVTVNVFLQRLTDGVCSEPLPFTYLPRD
Sequence 2: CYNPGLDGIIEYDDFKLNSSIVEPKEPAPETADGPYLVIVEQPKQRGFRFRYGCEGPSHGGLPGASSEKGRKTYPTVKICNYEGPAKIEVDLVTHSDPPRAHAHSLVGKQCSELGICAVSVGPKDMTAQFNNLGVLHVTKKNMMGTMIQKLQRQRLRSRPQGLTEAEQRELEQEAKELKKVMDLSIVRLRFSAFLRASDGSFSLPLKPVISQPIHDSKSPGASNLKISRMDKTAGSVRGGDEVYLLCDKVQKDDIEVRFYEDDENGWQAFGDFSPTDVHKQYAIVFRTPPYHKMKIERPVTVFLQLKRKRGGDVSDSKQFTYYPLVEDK
TEST SUMMARY: protein binding microarray; high values mean tight binding
COND: dsDNA, one strand shown
Answers are plain numbers, in z-score.

Worked cases, answers included:
CONSTRUCT SEQUENCE	VALUE OBSERVED
AAATGTATCCT	-0.763
AAGGGAATCCC	1.57
AAGTGTTCCCC	1.14
GGATTAGCCCC	0.414
GGGTGCTCCCT	-0.168
GAGGTTGCCCT	-0.624
CGAATCATCCC	-0.752
CGGAGGTTCCC	-0.115

// for each sequence below, give its binding signal
1. CAATGTCTCCC
2. GGAATTACCCC
3. GGGGTGATCCC
4. GAAAAGGCCCC
5. CGGGGCATCCT
6. GGATTGTTCCC

Solution:
1: -0.275; 2: 1.85; 3: 0.685; 4: 0.246; 5: 0.34; 6: -0.307
